# test-system: PRMT5-MEP50 enzyme (Homo sapiens)
# Construct: One virus expresses full length human PRMT5 with Flag-tag at N-terminus; Flag (N); purchased Charles River (Argenta); host or cells: insect cells (Sf9), baculovirus co-infection
# assay-method-text: In vitro assay 1b: high throughput mass spectrometer assay of SAH formation, 1.25 nM enzyme, 120 min
# Format: biochemical
# cond: averaged values; PRMT5-MEP50, 1.25 nM enzyme, 120 min; read-out: pIC50 Assay 1b (converted)
property: IC50 (nM)

Use the examples below as a reference point.
# get_value(readout='IC50', item= CNc1ncnc2c1ccn2[C@@H]1C[C@H](CCc2ccc3ccc(NC4CCC4)nc3c2)[C@@H](O)[C@H]1O [Compound 183] )
0.501

Moving on to Nc1ncnc2c1ccn2[C@@H]1C[C@H](COc2ccc3cc(Cl)cnc3c2)[C@@H](O)[C@H]1O [Compound 222]
63.1

Moving on to Cc1ncnc2c1ccn2[C@@H]1O[C@H](CCc2ccc3ccc(N)nc3c2)[C@@H](O)[C@H]1O [Compound 192]
10

Moving on to COc1ncnc2c1ccn2[C@@H]1O[C@H](CCc2ccc3ccc(NCC4CC4)nc3c2)[C@@H](O)[C@H]1O [Compound 191]
631

Moving on to CC(C)Nc1ccc2ccc(CC[C@H]3C[C@@H](n4ccc5c(N)ncnc54)[C@H](O)[C@@H]3O)cc2n1 [Compound 149]
5.01

1. COc1ccnc2cc(OC[C@H]3O[C@@H](n4ccc5c(N)ncnc54)[C@H](O)[C@@H]3O)ccc12 [Compound 104]
2. Nc1nc(Cl)nc2c1ccn2[C@@H]1O[C@H](COc2ccc3cc(Br)cnc3c2)[C@@H](O)[C@H]1O [Compound 42]
Compare reported IC50 values for 1 and 2 . Which is lower? Give the chosen item's label as your response.
2

###

# test-system: PRMT5-MEP50 enzyme (Homo sapiens, UniProt O14744)
# Construct: One virus expresses full length human PRMT5 with Flag-tag at N-terminus; Flag (N); purchased Charles River (Argenta); host or cells: insect cells (Sf9), baculovirus co-infection
# Sequence (O14744 whole entry): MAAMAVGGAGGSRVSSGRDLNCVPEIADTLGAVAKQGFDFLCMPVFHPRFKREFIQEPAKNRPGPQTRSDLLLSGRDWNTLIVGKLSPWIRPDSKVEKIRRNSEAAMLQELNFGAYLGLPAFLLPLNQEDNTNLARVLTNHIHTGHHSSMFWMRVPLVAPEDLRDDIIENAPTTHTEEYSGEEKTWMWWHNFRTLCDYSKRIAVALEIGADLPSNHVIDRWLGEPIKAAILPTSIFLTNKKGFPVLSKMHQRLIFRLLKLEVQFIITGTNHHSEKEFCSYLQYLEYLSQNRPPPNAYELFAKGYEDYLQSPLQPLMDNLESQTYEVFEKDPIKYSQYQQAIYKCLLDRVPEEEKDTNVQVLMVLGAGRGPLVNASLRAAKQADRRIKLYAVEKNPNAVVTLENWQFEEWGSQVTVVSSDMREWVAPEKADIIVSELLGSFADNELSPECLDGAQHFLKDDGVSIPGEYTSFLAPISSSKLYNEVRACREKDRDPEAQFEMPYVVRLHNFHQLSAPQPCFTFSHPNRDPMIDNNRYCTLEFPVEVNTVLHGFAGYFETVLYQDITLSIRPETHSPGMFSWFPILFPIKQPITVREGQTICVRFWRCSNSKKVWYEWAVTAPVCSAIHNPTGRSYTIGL
# Sequence (Q9BQA1 whole entry partner): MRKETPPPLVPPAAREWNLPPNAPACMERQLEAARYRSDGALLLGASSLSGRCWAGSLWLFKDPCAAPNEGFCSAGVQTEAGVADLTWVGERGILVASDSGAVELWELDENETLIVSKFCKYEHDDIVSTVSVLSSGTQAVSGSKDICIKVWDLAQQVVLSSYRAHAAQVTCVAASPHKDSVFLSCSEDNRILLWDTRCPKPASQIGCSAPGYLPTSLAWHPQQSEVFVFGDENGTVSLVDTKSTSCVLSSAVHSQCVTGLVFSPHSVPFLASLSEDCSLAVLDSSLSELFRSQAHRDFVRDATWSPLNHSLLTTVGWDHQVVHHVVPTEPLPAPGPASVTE
# assay-method-text: In vitro assay 1a: high throughput mass spectrometer assay of SAH formation, 10 nM enzyme, 60 min
# Format: biochemical
# cond: averaged values, PRMT5-MEP50, 10 nM enzyme, read-out: pIC50 Assay 1a (converted)
# Source text: Experimental Procedures In Vitro Assay (Assay 1a and 1b) PRMT5-MEP50 enzyme was purchased from Charles River (Argenta). The enzyme complex was produced in insect cells (Sf9) infected simultaneously with two baculoviruses. One virus expresses full length human PRMT5 with Flag-tag at N-terminus, the second virus expresses full length MEP50 with His6-TEV cleavage at N-terminus. […]
property: IC50 (nM)

# get_value(readout='IC50', item= `Nc1ncnc2c1ccn2[C@@H]1O[C@H](COc2cccc3cccnc23)[C@@H](O)[C@H]1O` )
6310

Moving on to `CC(C)Nc1ccc2ccc(CC[C@H]3C[C@@H](n4ccc5c(N)ncnc54)[C@H](O)[C@@H]3O)cc2n1`
0.316

P. Nc1ncnc2c1ccn2[C@@H]1O[C@H](COc2ccc3ccc(NCc4ccccc4)nc3c2)[C@@H](O)[C@H]1O
Q. CNC(=O)c1cnc2cc(OC[C@H]3O[C@@H](n4ccc5c(N)ncnc54)[C@H](O)[C@@H]3O)ccc2c1
R. CC(C)c1cnc2cc(OC[C@H]3O[C@@H](n4ccc5c(N)ncnc54)[C@H](O)[C@@H]3O)ccc2c1
S. Nc1ccc2ccc(CC[C@H]3O[C@@H](n4ccc5c(Cl)ncnc54)[C@H](O)[C@@H]3O)cc2n1
T. Nc1ncnc2c1ccn2[C@@H]1O[C@H](CNc2ccc3cc(Br)cnc3c2)[C@@H](O)[C@H]1O
Descending sort on IC50 required. List the labels, following the order given in the request.
Q, R, T, P, S

###

# test-system: PRMT5-MEP50 enzyme (Homo sapiens, UniProt O14744)
# Construct: One virus expresses full length human PRMT5 with Flag-tag at N-terminus; Flag (N); purchased Charles River (Argenta); host or cells: insect cells (Sf9), baculovirus co-infection
# assay-method-text: In vitro assay 1a: high throughput mass spectrometer assay of SAH formation, 10 nM enzyme, 60 min
# Type: biochemical
# cond: averaged values, PRMT5-MEP50, 10 nM enzyme, read-out: pIC50 Assay 1a (converted)
# Source text: Experimental Procedures In Vitro Assay (Assay 1a and 1b) PRMT5-MEP50 enzyme was purchased from Charles River (Argenta). The enzyme complex was produced in insect cells (Sf9) infected simultaneously with two baculoviruses. One virus expresses full length human PRMT5 with Flag-tag at N-terminus, the second virus expresses full length MEP50 with His6-TEV cleavage at N-terminus. […]
property: IC50 (nM)

Use the examples below as a reference point.
# get_value(readout='IC50', item= `Nc1ncnc2c1ccn2[C@@H]1O[C@H](COc2ccc3c(Cl)c(Cl)cnc3c2)[C@@H](O)[C@H]1O` )
398

Moving on to Nc1ncnc2c1ccn2[C@@H]1C[C@H](CNc2ccc3cc(Br)cnc3c2)[C@@H](O)[C@H]1O [Compound 54]
15.8

Moving on to `O[C@@H]1[C@H](O)[C@@H](CCc2ccc3ccc(NCc4ccc(Cl)cc4)nc3c2)O[C@H]1n1ccc2cncnc21`
3.98

Moving on to `Nc1nc2cc(CC[C@H]3C[C@@H](n4ccc5c(N)ncnc54)[C@H](O)[C@@H]3O)ccc2cc1Cl`
0.251

Moving on to CC(Oc1ccc2cccnc2c1)[C@H]1O[C@@H](n2ccc3c(N)ncnc32)[C@H](O)[C@@H]1O (single isomer, unassigned) [Compound 68]
2510

A. Nc1ncnc2c1ccn2[C@@H]1O[C@H](CNc2ccc3cc(Cl)cnc3c2)[C@@H](O)[C@H]1O
B. O[C@@H]1[C@H](O)[C@@H](COc2ccc3ccc(NCC4CC4)nc3c2)O[C@H]1n1ccc2c(Cl)ncnc21
C. CN(C[C@H]1O[C@@H](n2ccc3c(Cl)ncnc32)[C@H](O)[C@@H]1O)c1ccc2cc(Br)cnc2c1
Hey, quick one: sort these by IC50, low to high? List the labels, following the order given in the request.
B, A, C
(B: 6.31 nM, A: 10 nM, C: 2510 nM)

###

# test-system: PRMT5-MEP50 enzyme (Homo sapiens, UniProt O14744)
# Construct: One virus expresses full length human PRMT5 with Flag-tag at N-terminus; Flag (N); purchased Charles River (Argenta); host or cells: insect cells (Sf9), baculovirus co-infection
# assay-method-text: In vitro assay 1a: high throughput mass spectrometer assay of SAH formation, 10 nM enzyme, 60 min
# Type: biochemical
# cond: averaged values, PRMT5-MEP50, 10 nM enzyme, read-out: pIC50 Assay 1a (converted)
property: IC50 (nM)

Use the examples below as a reference point.
# get_value(readout='IC50', item= `Nc1ncnc2c1ccn2[C@@H]1O[C@H](COc2ccc3ccc(NCc4ccc(Cl)cc4)nc3c2)[C@@H](O)[C@H]1O` )
0.794

Moving on to `Nc1ncnc2c1ccn2[C@@H]1O[C@H](COc2cnc3ccccc3c2)[C@@H](O)[C@H]1O`
3160

Moving on to `N#Cc1cnc2cc(OC[C@H]3O[C@@H](n4ccc5c(N)ncnc54)[C@H](O)[C@@H]3O)ccc2c1`
631

1. CCc1cnc2cc(OC[C@H]3O[C@@H](n4ccc5c(N)ncnc54)[C@H](O)[C@@H]3O)ccc2c1
2. Cc1ncnc2c1ccn2[C@@H]1C[C@H](CCc2ccc3ccc(NCc4ccc(Cl)cc4)nc3c2)[C@@H](O)[C@H]1O
Compare reported IC50 values for 1 and 2 . Which is lower? Give the chosen item's label as your response.
2

###

# test-system: PRMT5-MEP50 enzyme (Homo sapiens, UniProt O14744)
# Construct: One virus expresses full length human PRMT5 with Flag-tag at N-terminus; Flag (N); purchased Charles River (Argenta); host or cells: insect cells (Sf9), baculovirus co-infection
# assay-method-text: In vitro assay 1b: high throughput mass spectrometer assay of SAH formation, 1.25 nM enzyme, 120 min
# Format: biochemical
# cond: averaged values; PRMT5-MEP50, 1.25 nM enzyme, 120 min; read-out: pIC50 Assay 1b (converted)
property: IC50 (nM)

Use the examples below as a reference point.
# get_value(readout='IC50', item= `Nc1ncnc2c1ccn2[C@@H]1C[C@H](CCc2ccc3cccnc3c2)[C@@H](O)[C@H]1O` )
15.8

Moving on to `CNc1ncnc2c1ccn2[C@@H]1C[C@H](COc2ccc3cc(Br)c(N)nc3c2)[C@@H](O)[C@H]1O`
1.58

Moving on to `CNc1ccc2ccc(CC[C@H]3O[C@@H](n4ccc5c(N)ncnc54)[C@H](O)[C@@H]3O)cc2n1`
20

Moving on to `Nc1ncnc2c1ccn2[C@@H]1C[C@H](CCc2ccc3ccc(NC4CCCC4)nc3c2)[C@@H](O)[C@H]1O`
2.51

Moving on to `Nc1ncnc2c1ccn2[C@@H]1O[C@H](COc2ccc3cc(Cl)cnc3c2)[C@@H](O)[C@H]1O`
39.8

I. CNc1ccc2ccc(CC[C@H]3O[C@@H](n4ccc5cncnc54)[C@H](O)[C@@H]3O)cc2n1
II. Nc1ccc2ccc(CC[C@H]3C[C@@H](n4ccc5c(Cl)ncnc54)[C@H](O)[C@@H]3O)cc2n1
Compare reported IC50 values for I and II . Which is lower? Give the chosen item's label as your response.
II

Just for reference, patent US11318157B2 is where these values come from.
